measured-on: T1, cynomolgus monkey BCMA (cynomolgus monkey, UniProt A0A2K5UD97 1-53)
T1 construct: Soluble analyte in SPR; construct not described; also called cyBCMA; Cyno BCMA
assay-name: SPR, IgG immobilised, 37 C
Would you kindly list Kd for each of these binders?
Write down the numeric answer in nM and omit the unit.

Entry under review: L3.PY/L1.PS/P6E01 (antibody, V domains shown, IgG) VH: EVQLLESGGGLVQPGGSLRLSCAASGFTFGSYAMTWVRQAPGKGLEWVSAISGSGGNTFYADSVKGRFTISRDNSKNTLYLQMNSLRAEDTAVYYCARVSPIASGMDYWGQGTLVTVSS VL: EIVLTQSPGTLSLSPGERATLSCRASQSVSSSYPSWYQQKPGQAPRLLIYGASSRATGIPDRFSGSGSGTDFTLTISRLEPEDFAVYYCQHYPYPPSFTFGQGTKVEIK . Reported Kd?
2.79

Here is the next binder: L3.PY/L1.PS/H3.AQ (antibody, V domains shown, IgG) VH: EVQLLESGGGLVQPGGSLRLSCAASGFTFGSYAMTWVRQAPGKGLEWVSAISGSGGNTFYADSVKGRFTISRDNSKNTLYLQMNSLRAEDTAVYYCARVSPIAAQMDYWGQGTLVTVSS VL: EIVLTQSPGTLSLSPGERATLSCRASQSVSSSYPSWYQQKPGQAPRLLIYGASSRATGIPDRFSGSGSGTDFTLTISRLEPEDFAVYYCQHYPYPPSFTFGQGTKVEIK
1.72

Here is the next binder: L3.PY/L1.PS/H2.HA (antibody, V domains shown, IgG) VH: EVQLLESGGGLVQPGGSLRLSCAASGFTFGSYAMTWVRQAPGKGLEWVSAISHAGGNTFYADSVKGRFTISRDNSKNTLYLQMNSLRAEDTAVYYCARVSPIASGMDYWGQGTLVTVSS VL: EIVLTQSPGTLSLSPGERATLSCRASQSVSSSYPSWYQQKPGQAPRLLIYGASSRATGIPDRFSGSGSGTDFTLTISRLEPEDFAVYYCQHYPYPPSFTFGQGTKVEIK
1.86
